Value source: PubChem BioAssay (EPA / NIEHS)

# assayNotes: BSK_3C_uPAR: BioMAP Diversity Plus: 3C Assay for Urokinase-type plasminogen activator receptor (uPAR) Biomarker Activity (AID 2282998)
# conditionSet: BioMAP 3C HUVEC, uPAR biomarker ELISA; actives raise or lower the signal
Calls of active or inactive are those of the source. How the source made its calls: active means hit-call score of the fitted dose curve at least 0.9, where 1 is the maximum; inactive means score below 0.9.
Classes used: active, inactive

compound: CC(=O)O
qualitativeLabel: inactive

compound: CCCCOC(=O)CCCCC(=O)OCCCC
qualitativeLabel: inactive

compound: COc1ccc(OC(F)(F)F)cc1CN[C@H]1CCCN[C@H]1c1ccccc1
qualitativeLabel: active

compound: CC(C)(O)c1ccc(CNC(=O)c2cccnc2Oc2ccc(F)cc2)cc1
qualitativeLabel: inactive

compound: Cc1cc(Cc2ccc(N)c(C)c2)ccc1N
qualitativeLabel: inactive

compound: Cn1cnc2c1c(=O)[nH]c(=O)n2C
qualitativeLabel: inactive

compound: O=C1OC(c2ccc(O)cc2)(c2ccc(O)cc2)c2ccccc21
qualitativeLabel: active

compound: C/C=C/C=C/C(=O)O
qualitativeLabel: inactive

compound: N[C@@H](Cc1c[nH]c2ccccc12)C(=O)O
qualitativeLabel: inactive

compound: CC(C)c1cccc(C(C)C)c1NC(=O)NS(=O)(=O)c1cc(C(C)(C)O)co1
qualitativeLabel: inactive

compound: CC(=O)S[C@H](C(=O)N[C@H]1Cc2ccccc2[C@H]2CCC[C@@H](C(=O)O)N2C1=O)C(C)C
qualitativeLabel: inactive

compound: CC(C)c1cccc(C(C)C)c1
qualitativeLabel: inactive

compound: O=C1CCCCC1
qualitativeLabel: inactive

compound: COC(=O)CCC(=O)OC
qualitativeLabel: inactive

compound: CCCCCCCCCCCCCCCCO
qualitativeLabel: inactive

compound: CS(=O)(=O)c1ccc([C@@H](C[C@H]2CCC(=O)C2)C(=O)Nc2cnccn2)cc1Cl
qualitativeLabel: inactive

compound: OCC(CO)n1cnc(-c2ccc(F)cc2)c1-c1ccnc(Oc2ccccc2)n1
qualitativeLabel: inactive

compound: O=C1NC(=O)C(c2ccccc2)(c2ccccc2)N1
qualitativeLabel: inactive

compound: S=c1[nH]c2ccccc2s1
qualitativeLabel: inactive

compound: CCOCCOCCO
qualitativeLabel: inactive

compound: O=C1c2c(O)cccc2Cc2cccc(O)c21
qualitativeLabel: inactive

compound: Cc1ccc(-c2cc(C(F)(F)F)nn2-c2ccc(S(N)(=O)=O)cc2)cc1
qualitativeLabel: active

compound: CO[C@@H]1COCC[C@@H]1N[C@@H]1CC[C@@](C(=O)N2CCc3ncc(C(F)(F)F)cc3C2)(C(C)C)C1
qualitativeLabel: inactive

compound: Nc1nc(=S)c2[nH]cnc2[nH]1
qualitativeLabel: inactive

compound: CCCCCCCCCCCCCCOS(=O)(=O)O
qualitativeLabel: inactive

compound: CCCCCCCCCC[N+](C)(C)[O-]
qualitativeLabel: inactive

compound: O=C(O)c1cccnc1
qualitativeLabel: inactive

compound: O=C(N[C@@H](c1ccccc1)[C@@H]1CCCCN1)c1cccc(C(F)(F)F)c1Cl
qualitativeLabel: active

compound: CC1=C(C)S(=O)(=O)CCS1(=O)=O
qualitativeLabel: inactive

compound: O=C(Oc1ccccc1)c1cccc(C(=O)Oc2ccccc2)c1
qualitativeLabel: inactive

compound: CCCCC(CC)COC(=O)CCCCCCCC(=O)OCC(CC)CCCC (configuration not stated)
qualitativeLabel: inactive

compound: COC(=O)CCCC(=O)OC
qualitativeLabel: inactive
